Origin of the recorded values: patent US7763617B2

Overview of reported pIC50 across a group of compounds:
Molecular target: PDE4Bcat (Homo sapiens, UniProt Q07343)
Construct: catalytic domain (indicated as “cat,” hereinafter), PDE4Bcat
Sequence (Q07343 330-659 limits assumed): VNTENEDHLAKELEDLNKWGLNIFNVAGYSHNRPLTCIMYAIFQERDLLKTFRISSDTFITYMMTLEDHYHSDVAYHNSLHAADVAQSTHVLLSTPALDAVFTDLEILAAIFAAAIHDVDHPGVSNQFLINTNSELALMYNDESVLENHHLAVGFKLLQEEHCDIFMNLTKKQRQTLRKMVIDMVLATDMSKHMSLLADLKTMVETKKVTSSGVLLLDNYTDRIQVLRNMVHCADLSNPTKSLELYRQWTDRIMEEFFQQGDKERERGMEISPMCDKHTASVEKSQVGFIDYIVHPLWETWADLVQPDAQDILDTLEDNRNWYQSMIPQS
Test: Inhibition of phosphodiesterase activity, [3H]-cAMP hydrolysis, recombinant PDE4Bcat
Settings: cAMP 2 μmol/L, read-out: IC50(μmol/L) PDE4
pIC50: −log10 of the molar value.

Prompt: Tell me the measured pIC50 of CCc1cc2c(C3=NNC(=O)CC3C)ccc(NC)n2n1 (centres unmarked) [Example 225] , please.
Completion: > 6.00

Prompt: Repeat for the following compound: COc1ccc(C2=NNC(=O)CC2C)c2cc(C(F)(F)F)nn12 (centres unmarked) [205(211)]
Completion: > 6.00

Prompt: Repeat for the following compound: CCc1cc2c(C3=NNC(=O)CC3C)cccn2n1 (centres unmarked) [Example 201]
Completion: < 5.00

Prompt: Repeat for the following compound: CCc1cc2c(C3=NN(Cc4cccnc4)C(=O)CC3C)cc(F)cn2n1 (centres unmarked) [Example 287]
Completion: 5.00 to 6.00

Prompt: Repeat for the following compound: CCc1cc2c(C3=NNC(=O)CC3C)ccc(OC(C)C)n2n1 (centres unmarked) [Example 245]
Completion: < 5.00
